These entries and their values trace back to patent US20260042834A1.

# study system: T1, biotinylated CRH (human and mouse, not fully specified; biotinylated, position not stated)
# T1 construct: also called Biotin-CRH; biotin-labeled CRH
# T1 peptide: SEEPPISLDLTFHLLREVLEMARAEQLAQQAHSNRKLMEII
# procedure details: Octet BLI, biotinylated CRH on SA sensor

binder	uom	lt gt eq	koff
PR006147 (antibody, human IgG1, kappa, V domains shown, PTM-removal variant of PR004290) VH: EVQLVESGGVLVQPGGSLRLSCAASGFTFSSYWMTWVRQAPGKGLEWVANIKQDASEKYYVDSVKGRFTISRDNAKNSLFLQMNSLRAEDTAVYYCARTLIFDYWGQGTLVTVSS VL: DIVMTQSPLSLPVTPGEPASISCRSSQSLLHSTGYHSLEWYLQKPGQSPQLLIYLGSNRASGVPDRFSGSGSGTDFTLKISRVEAEDVGIYYCMQTLQTPITFGQGTRLEIKR	s⁻¹	=	6.96e-05
PR302341-48 (antibody, human IgG1, kappa, V domains shown, Humanized, PTM-removed variant of PR302341) VH: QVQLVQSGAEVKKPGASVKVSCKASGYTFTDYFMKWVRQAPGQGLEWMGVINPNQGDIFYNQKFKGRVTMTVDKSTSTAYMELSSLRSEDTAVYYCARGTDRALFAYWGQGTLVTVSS VL: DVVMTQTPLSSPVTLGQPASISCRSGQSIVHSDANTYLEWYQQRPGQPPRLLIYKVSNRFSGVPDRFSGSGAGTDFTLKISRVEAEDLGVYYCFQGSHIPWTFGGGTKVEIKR	s⁻¹	<	1e-07
PR005662 (antibody, human IgG1, kappa, V domains shown, PTM-removal variant of PR004290) VH: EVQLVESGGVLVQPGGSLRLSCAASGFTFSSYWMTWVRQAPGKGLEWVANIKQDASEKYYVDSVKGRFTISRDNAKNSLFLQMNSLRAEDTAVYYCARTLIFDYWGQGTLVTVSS VL: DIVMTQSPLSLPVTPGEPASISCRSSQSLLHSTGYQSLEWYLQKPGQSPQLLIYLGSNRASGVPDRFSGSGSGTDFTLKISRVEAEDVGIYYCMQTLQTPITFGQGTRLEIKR	s⁻¹	=	8.27e-05
PR302309-8 (antibody, human IgG1, kappa, V domains shown, Humanized variant of PR302309) VH: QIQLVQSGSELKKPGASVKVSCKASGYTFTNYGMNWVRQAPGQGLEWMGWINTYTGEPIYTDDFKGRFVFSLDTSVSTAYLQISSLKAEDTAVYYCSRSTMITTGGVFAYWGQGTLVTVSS VL: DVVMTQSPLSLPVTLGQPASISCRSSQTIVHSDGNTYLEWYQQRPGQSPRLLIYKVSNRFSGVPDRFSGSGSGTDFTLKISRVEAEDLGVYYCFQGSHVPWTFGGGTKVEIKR	s⁻¹	=	0.000136
PR006144 (antibody, human IgG1, kappa, V domains shown, PTM-removal variant of PR004290) VH: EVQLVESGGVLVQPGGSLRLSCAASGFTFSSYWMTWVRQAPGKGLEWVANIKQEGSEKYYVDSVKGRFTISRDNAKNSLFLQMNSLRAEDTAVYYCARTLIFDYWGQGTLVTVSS VL: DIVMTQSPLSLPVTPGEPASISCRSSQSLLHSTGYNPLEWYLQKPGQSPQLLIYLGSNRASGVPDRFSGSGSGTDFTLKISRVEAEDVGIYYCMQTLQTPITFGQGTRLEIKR	s⁻¹	=	4.47e-05
